Test system: D54 ERlucT glycosylation luciferase reporter, luminescence, 24 h
Experiment: N-linked glycosylation inhibitors, luciferase reporter, dose response, D54 ERlucT cells, luminescence, cherry-picks (AID 624491);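 also: signal gain reflects blocked N-linked glycosylation of a luciferase reporter; actives raise luciferase signal so AC26 marks activators of the reporter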
Attribute Measured: AC26

CCn1c(=O)c2cc(C(=O)NCCCOC)sc2c2ccccc21 :: 2460 nM
COc1ccc(-c2nc(C(N)=O)c3[nH]c(=O)n(-c4cccc(Cl)c4)c3n2)cc1OC :: 5880 nM

Ask: Give the measured AC26 of `Cn1c(=O)c2cc(NC(=O)CCc3ccccc3)ccc2n1-c1ccccc1F` .
Reply: 1780 nM

Ask: # repeat for `COc1cc2nc(NC(=O)c3ccc(F)cc3Cl)sc(=O)c2cc1OC`
Reply: 1900 nM

Ask: # repeat for `COc1ccc2c(c1)OC[C@H]1[C@H]2N2C(=O)c3cc(OC)ccc3NC(=O)[C@@]2(C)[C@H]1c1ccccc1`
Reply: 1360 nM

Ask: # repeat for O=C(NCC1CCCO1)c1cc(-c2ccccc2)on1 (stereo unspecified)
Reply: 6450 nM

Ask: # repeat for `CCOc1ccc(OCC)c(NC(=O)c2nnn(CC(=O)Nc3cc(C)cc(C)c3)c2N)c1`
Reply: 6440 nM

Ask: # repeat for `Cc1cccn2c(=O)c3cc(C(=O)NC4CCCCC4)n(C)c3nc12`
Reply: 10200 nM

Ask: # repeat for `O=[N+]([O-])c1cc(S(=O)(=O)C(F)(F)F)ccc1Sc1nc2ccccc2[nH]1`
Reply: 4570 nM

Ask: # repeat for `COc1ccc(CC(=O)NCc2ccc(-n3cccc3)cc2)cc1OC`
Reply: 825 nM

Ask: # repeat for `Cc1ccc2c(c1)C(=O)N1[C@H]3c4cc(C)ccc4OC[C@@H]3[C@H](c3ccccc3)[C@]1(C)C(=O)N2`
Reply: 26.4 nM

----------
Tested on: D54 ERlucT glycosylation luciferase reporter, luminescence, 24 h
Assay: N-linked glycosylation inhibitors, luciferase reporter, dose response, D54 ERlucT cells, luminescence, cherry-picks (AID 624491)
Let's look at some compounds and their measured AC26.

Consider the worked cases shown below.
CCOC(=O)c1c(NC(C)=O)sc2c(OCCN(CC)CC)c(Br)ccc12 :: 2690 nM
Cc1cc2c(cc(C(=O)OCC(=O)NCc3cccs3)n2C(C)C)o1 :: 1740 nM
COc1ccc(NC(=O)C2Cc3c(-c4cccc(NC(C)=O)c4)ccnc3O2)cc1 (centres undefined) :: 1560 nM

Ask: Give the measured AC26 of `O=C(C[C@H]1C/C=C\C[C@H](Cc2ccc(F)cc2)C(=O)O[C@@H](c2ccccc2)CNC1=O)N[C@@H](CO)Cc1ccccc1` .
Reply: 892 nM

Ask: # repeat for O=C(CC1Sc2ccccc2NC1=O)NNc1ccc(Cl)c(Cl)c1 (centres undefined)
Reply: 2840 nM

Ask: # repeat for `COc1cc(C(=O)OCCCN2CCCN(CCCOC(=O)c3cc(OC)c(OC)c(OC)c3)CC2)cc(OC)c1OC`
Reply: 1550 nM

Ask: # repeat for `COc1cc(C(=O)N/N=C(\C)c2ccc3c(c2)OCO3)cc(OC)c1OC`
Reply: 1260 nM

Ask: # repeat for `c1ccc(CNc2nc(-c3ccccc3)nc3ccccc23)cc1`
Reply: 1570 nM

Ask: # repeat for `Cc1cccc(N2CCN(C(=O)c3ccncc3)CC2)c1C`
Reply: 11400 nM

Ask: # repeat for `COc1ccc(-c2cc(-c3ccc(O)cc3)nc(N)c2C#N)cc1OC`
Reply: 4050 nM

Ask: # repeat for CC(C)OCC(O)CN1CCN(CCN2C(=O)c3cccc4cccc(c34)C2=O)CC1 (centres undefined)
Reply: 7110 nM

Ask: # repeat for `COc1cc(Nc2nc3c(N)cc(C(F)(F)F)cc3nc2-c2ccccc2)cc(OC)c1OC`
Reply: 868 nM

Ask: # repeat for `CC(=O)Nc1ccc(NC(=O)c2ccc(-c3c(C)noc3C)c3ccoc23)cc1`
Reply: 1350 nM

Ask: # repeat for `COc1ccc(CCn2c(=N)c(C(=O)NCCN3CCOCC3)cc3c(=O)n4cccc(C)c4nc32)cc1OC`
Reply: 739 nM

----------
Tested on: D54 ERlucT glycosylation luciferase reporter, luminescence, 24 h
Test: N-linked glycosylation inhibitors, luciferase reporter, dose response, D54 ERlucT cells, luminescence, cherry-picks (AID 624491)
Activity calls are given as the source filed them.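 Rule for the calls: active = fitted curve crossing a set activation limit at or below the highest valid dose tested; inconclusive = flat fit at 30 to 70% activation, or poor fit; inactive = the rest, including signal decreases.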
Result category, one only: true (1) = active, false (0) = inactive

Example results:
COc1ccc(NC(=O)C2Cc3c(-c4cccc(NC(C)=O)c4)ccnc3O2)cc1OC (centres undefined) :: true (1)
Cc1nnc2c3ccccc3c(-c3ccccc3)nn12 :: true (1)
NC(=O)CC(NC(=O)Cc1ccc(Br)cc1)c1ccc(NC2CC3CCC2C3)c([N+](=O)[O-])c1 (centres undefined) :: true (1)
CCc1ccc(OCC(=O)Nc2ccc(-c3cc4ccccc4oc3=O)c(OC)c2)cc1 :: true (1)
CCOC(=O)c1cnc2c(C)cc(C)cc2c1NCCCN1CCOCC1 :: true (1)
Cc1ccc(OC(=O)CCC(=O)Oc2ccc(C)cc2C)c(C)c1 :: false (0)
Cc1ccc(-c2nc(NCCN(C)C)c3ccccc3n2)cc1 :: true (1)
CCOC(=O)c1c(CN(C)C)n(C)c2c(O)c(N=NC(N)=O)c3ccc(Br)cc3c12 :: true (1)

Ask: Entry `Cc1noc(C)c1COc1ccc(C(=O)NNC(=O)c2ccccc2F)cc1` : call = ?
Reply: true (1)

Ask: # repeat for `Cc1ccc(C)n1-c1cccc(NC(=O)c2ccccc2)c1`
Reply: true (1)

Ask: # repeat for `COc1ccc2c(c1)OC[C@H]1[C@H]2N2C(=O)c3cc(Cl)ccc3NC(=O)[C@@]2(C)[C@H]1c1ccccc1`
Reply: true (1)

----------
Test system: D54 ERlucT glycosylation luciferase reporter, luminescence, 24 h
Assay: N-linked glycosylation inhibitors, luciferase reporter, dose response, D54 ERlucT cells, luminescence, cherry-picks (AID 624491);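 also: signal gain reflects blocked N-linked glycosylation of a luciferase reporter; actives raise luciferase signal so AC26 marks activators of the reporter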
Let's look at some compounds and their measured AC26.

Consider the worked cases shown below.
Cc1ccc(C)c(Cn2nnc3c(=O)[nH]c(C4CCN(C(=O)c5ccco5)CC4)nc32)c1 :: 1.11 µM
COc1cccc(Oc2ccc(C(F)(F)F)cc2NC(=O)CN2C(=O)NC3(CCCC3)C2=O)c1 :: 4.85 µM
O=C1CC(c2ccccc2F)c2cc3c(cc2N1)CCC3 (centres undefined) :: 0.938 µM
COc1ccccc1/C=N/NC(=O)c1cc2c(OC)c(OC)ccc2[nH]1 :: 0.495 µM
Cc1ccc(-c2nn3c(C)nnc3c3ccccc23)cc1S(=O)(=O)N(C)CCO :: 4.21 µM

Ask: Give the measured AC26 of `Cc1ccc(C(=O)c2coc3c2C(=O)C(=O)c2ccccc2-3)cc1` .
Reply: 4.63 µM

Ask: # repeat for NC(=O)CC(NC(=O)Cc1ccc(Cl)cc1)c1ccc(NC2CCCC2)c([N+](=O)[O-])c1 (centres undefined)
Reply: 1.84 µM

----------
Let's look at some compounds and their measured AC26.
System: D54 ERlucT glycosylation luciferase reporter, luminescence, 24 h
Test: N-linked glycosylation inhibitors, luciferase reporter, dose response, D54 ERlucT cells, luminescence, cherry-picks (AID 624491);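 also: signal gain reflects blocked N-linked glycosylation of a luciferase reporter; actives raise luciferase signal so AC26 marks activators of the reporter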

Cc1ccc(NC(=O)c2cc(S(=O)(=O)N(C)C)ccc2N2CCCC2)cc1S(=O)(=O)N(C)C :: 276 nM
C#CC[N+](C)(C)CCCCCCCCCCCC :: 7360 nM
Cc1ccc(NCCN(C)C)c2c(=O)c3cc(O)ccc3sc12 :: 84.5 nM
O=C1C=C(c2cccs2)C[C@H](c2ccccc2)[C@H]1n1nnc([N+](=O)[O-])n1 :: 260 nM

Ask: Give the measured AC26 of `O=C(c1ccc2ncsc2c1)N1CCN(c2cccc(C(F)(F)F)c2)CC1` .
Reply: 4190 nM

Ask: # repeat for COc1cccc(C(NC(C)=O)c2nc(-c3ccccc3C)cs2)c1 (stereo unspecified)
Reply: 774 nM

----------
Let's look at some molecules and their measured AC26.
System: D54 ERlucT glycosylation luciferase reporter, luminescence, 24 h
Assay: N-linked glycosylation inhibitors, luciferase reporter, dose response, D54 ERlucT cells, luminescence, cherry-picks (AID 624491);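 also: signal gain reflects blocked N-linked glycosylation of a luciferase reporter; actives raise luciferase signal so AC26 marks activators of the reporter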

COc1cc(C(=O)Nc2ccc3c(c2)nc(C)n3C)cc(OC)c1OC :: 2.69 µM
CC(C)(C)NCC(O)CON=C1c2ccccc2-c2ccccc21 (stereo not given) :: 5.31 µM
COc1cc2c(cc1OC)-c1c3c(cc4c1[C@@H](C2)N(C)CC4)OCO3 :: 17.6 µM
Cc1nnc2c(NC3CCCCC3)nc3ccccc3n12 :: 2.76 µM
CN(C)CCNc1cccc2sc3ccc(O)cc3c(=O)c12 :: 0.5 µM

Ask: Give the measured AC26 of `CCOC(=O)c1ccc(/C=C2/C=C(c3ccccc3)N(c3ccc(Cl)c(C(=O)O)c3)C2=O)cc1` .
Reply: 1.84 µM

Ask: # repeat for `CCN(CC)CCNC(=O)c1cc2c(-c3ccc(Cl)cc3)nn(C)c2s1`
Reply: 3.33 µM

Ask: # repeat for Cc1[nH]nc2c1C(c1ccc(-c3ccc(Cl)cc3)o1)C(C#N)=C(N)O2 (stereo not given)
Reply: 1.14 µM

Ask: # repeat for `O=C(O)CCC/C=C\C[C@@H]1[C@@H](/C=C/[C@@H](O)COc2cccc(Cl)c2)[C@H](O)C[C@@H]1O`
Reply: < 0.0012 µM

Ask: # repeat for `CCn1c2ccccc2c2cc(NC(=O)CNCc3ccccc3OC)ccc21`
Reply: 1.36 µM

Ask: # repeat for `CCOc1ccc2cc(/C=C/C(=O)c3ccco3)c(Cl)nc2c1`
Reply: 3.06 µM

Ask: # repeat for Cc1ccccc1OCC(O)CN1CCN(CCN2C(=O)c3cccc4cccc(c34)C2=O)CC1 (stereo not given)
Reply: 13.5 µM

Ask: # repeat for CC(=O)Nc1cccc(-c2ccnc3c2CC(C)(C(=O)Nc2cccc(C(C)=O)c2)O3)c1 (stereo not given)
Reply: 9.48 µM

Ask: # repeat for `COc1cccc(/C=C2\SC(=S)N(CCC(=O)N3CCCCC3)C2=O)c1`
Reply: 5.77 µM

Ask: # repeat for `Cc1ccc2nc(Cl)c(/C=C/C(=O)c3ccco3)cc2c1`
Reply: 7.89 µM

Source listed as PubChem BioAssay AID624491.
